Where do the numbers come from? From PubChem BioAssay AID493040.

# study-system: Cyclin-dependent kinase 2 (Homo sapiens)
Below, each entry is listed alongside its reported Ki.
result-type: Ki

O=[N+]([O-])c1cccc(-c2nnc3ccc(N4CCCCC4)nn23)c1 :: 631 nM
CN(c1ccccc1-c1ccc2c(c1)Nc1ccccc1NC2=O)S(C)(=O)=O :: 2000 nM
O=c1cc(-c2ccncc2)nc(NCc2cc(F)cc(F)c2)[nH]1 :: 794 nM
CCNC(=O)c1[nH]nc(-c2cc(Cl)c(O)cc2O)c1-c1ccc(OC)cc1 :: 6310 nM
COCCNc1cc(-c2c[nH]c3ncccc23)cc(Cl)n1 :: 251 nM
CCOC(=O)c1cn(-c2ccc(O)cc2C)c2cc(-c3ccncc3)ccc2c1=O :: 3980 nM
CC(C)(O)CNc1cc(-c2c[nH]c3ncccc23)cc(Cl)n1 :: 251 nM
CCn1c(-c2nonc2N)nc2cnc(Oc3cccc(NC(=O)c4ccc(OCCN5CCOCC5)cc4)c3)cc21 :: 794 nM

====

# study-system: Rho-associated protein kinase 2 (Homo sapiens) (UniProt O75116)
# Sequence (O75116 whole entry, looked up): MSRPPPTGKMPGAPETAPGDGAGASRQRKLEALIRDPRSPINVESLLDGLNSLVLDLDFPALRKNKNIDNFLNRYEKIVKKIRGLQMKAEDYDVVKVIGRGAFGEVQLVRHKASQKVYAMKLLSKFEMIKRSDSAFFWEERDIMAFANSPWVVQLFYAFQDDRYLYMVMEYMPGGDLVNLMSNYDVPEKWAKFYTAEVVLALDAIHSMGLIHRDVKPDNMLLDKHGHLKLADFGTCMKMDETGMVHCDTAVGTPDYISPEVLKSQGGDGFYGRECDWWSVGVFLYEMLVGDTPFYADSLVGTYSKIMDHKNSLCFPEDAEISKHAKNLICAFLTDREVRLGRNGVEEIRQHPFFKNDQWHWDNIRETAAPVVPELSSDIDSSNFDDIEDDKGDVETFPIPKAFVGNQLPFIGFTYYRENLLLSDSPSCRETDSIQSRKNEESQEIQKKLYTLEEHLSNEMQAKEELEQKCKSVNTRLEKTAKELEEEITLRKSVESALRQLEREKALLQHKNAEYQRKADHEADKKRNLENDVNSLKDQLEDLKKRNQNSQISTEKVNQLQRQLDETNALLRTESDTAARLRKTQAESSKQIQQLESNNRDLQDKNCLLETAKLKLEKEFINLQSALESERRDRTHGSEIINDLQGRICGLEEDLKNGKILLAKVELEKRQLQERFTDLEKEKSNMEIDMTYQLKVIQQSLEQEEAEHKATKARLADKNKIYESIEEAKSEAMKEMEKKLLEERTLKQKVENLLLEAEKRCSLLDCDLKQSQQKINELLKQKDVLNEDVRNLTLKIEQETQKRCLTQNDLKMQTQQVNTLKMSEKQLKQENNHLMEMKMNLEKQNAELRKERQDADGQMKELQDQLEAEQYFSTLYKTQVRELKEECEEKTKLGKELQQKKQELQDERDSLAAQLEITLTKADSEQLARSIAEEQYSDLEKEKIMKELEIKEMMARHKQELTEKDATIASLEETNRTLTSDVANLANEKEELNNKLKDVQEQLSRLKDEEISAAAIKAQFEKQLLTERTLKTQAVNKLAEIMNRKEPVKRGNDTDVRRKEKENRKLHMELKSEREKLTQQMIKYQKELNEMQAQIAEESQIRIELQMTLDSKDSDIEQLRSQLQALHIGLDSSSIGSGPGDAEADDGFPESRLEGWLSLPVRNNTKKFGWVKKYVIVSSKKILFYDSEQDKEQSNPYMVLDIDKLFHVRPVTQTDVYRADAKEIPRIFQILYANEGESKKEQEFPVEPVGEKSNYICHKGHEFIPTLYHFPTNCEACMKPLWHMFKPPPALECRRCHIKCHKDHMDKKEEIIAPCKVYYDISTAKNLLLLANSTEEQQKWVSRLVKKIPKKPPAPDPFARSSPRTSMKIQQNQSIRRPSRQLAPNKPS
# protocol-summary: PubChem AID 493040
# assay-setup: kinase panel binding, pKi; ROCK2
Active and inactive are the calls of the source. No rule for the calls is given here.
Outcomes: 1 (yes) = active, 0 (no) = inactive

CN(C)c1ccc(-c2c(-c3ccc4[nH]nc(N)c4c3)nnn2Cc2ccccc2)cc1 :: 1 (yes)
OCCCCNc1cc(-c2c[nH]c3ncccc23)cc(Cl)n1 :: 1 (yes)
Oc1ccc(-c2nc(-c3ccc(F)cc3)c(-c3ccncc3)[nH]2)cc1 :: 0 (no)
C=CCNc1cc(-c2c[nH]c3ncccc23)cc(Cl)n1 :: 1 (yes)
NC(=O)c1ccc(Nc2ncnc3[nH]cc(-c4ccccc4)c23)cc1 :: 1 (yes)
Cc1[nH]nc2ccc(-c3cncc(OCCNS(C)(=O)=O)c3)cc12 :: 1 (yes)
CC(C)(O)CNc1cc(-c2c[nH]c3ncccc23)cc(Cl)n1 :: 1 (yes)
OCCNc1cc(-c2c[nH]c3ncccc23)cc(Cl)n1 :: 1 (yes)
COCCN(CCOC)c1cc(-c2c[nH]c3ncccc23)cc(Cl)n1 :: 1 (yes)
NC(=O)c1ccc2c(ccn2-c2cccc(Cl)c2)c1 :: 1 (yes)
NC1CCCCC1Nc1nccc(Nc2ccccc2C(=O)O)n1 (stereo unspecified) :: 0 (no)

====

# study-system: Mitogen-activated protein kinase 14 (Homo sapiens)
# protocol-summary: PubChem AID 493040
# assay-setup: kinase panel binding, pKi; MAPK14
result-type: Ki

Cc1cc(=O)[nH]nc1-c1ccc(NC(=O)Nc2cc(C(F)(F)F)ccc2F)c(Cl)c1 :: 100 nM
CC(C)CC(NC(=O)c1cccc(-n2nc(C(C)(C)C)cc2NC(=O)Nc2cccc3ccccc23)c1)C(N)=O (stereo not drawn) :: 794 nM
CC(=O)n1ncc2cc(N)ccc21 :: 7940 nM

====

# study-system: Serine/threonine-protein kinase Sgk2 (Homo sapiens)
# protocol-summary: PubChem AID 493040
# assay-setup: kinase panel binding, pKi; SGK
Activity calls are given as the source filed them. How the calls were made is not given here.
Outcomes: active, inactive

CCOC(=O)c1cn(-c2ccc(O)cc2C)c2cc(-c3ccncc3)ccc2c1=O :: inactive
O=C(Nc1ccc(CO)cc1)c1cnn2c(-c3ccccc3)ccnc12 :: inactive
CCn1c(-c2nonc2N)nc2cnc(Oc3cccc(NC(=O)c4ccc(OCCN5CCOCC5)cc4)c3)cc21 :: active
COc1ccc(C=C2SC(=Nc3ccccc3)NC2=O)cc1OC :: inactive
COc1cc2c(Oc3ccc4[nH]c(C)cc4c3F)ncnc2cc1OCCCN1CCCC1 :: inactive
COc1cc2ncn(-c3cc(OCc4ccccc4C(F)(F)F)c(C(N)=O)s3)c2cc1OC :: inactive
O=c1ncn2nc(Sc3ccc(F)cc3F)ccc2c1-c1c(Cl)cccc1Cl :: inactive
O=S(=O)(Nc1ccccn1)c1ccc(N=Cc2c(O)[nH]c3ccc4ncsc4c23)cc1 :: active
Oc1cccc(-c2nc(N3CCOCC3)c3oc4ncccc4c3n2)c1 :: inactive

====

# study-system: UniProtKB P24941
pKi: −log10 of the molar value.
Rule: met for pKi not less than 6, not met for anything less.

CS(=O)(=O)Nc1ccccc1-c1ccc2c(c1)Nc1ccccc1NC2=O :: not met
COc1ccccc1C(=O)Nc1n[nH]c2ccc(-c3cn(Cc4ccccc4)nn3)cc12 :: met
CCCCCCCCCCCCOc1ccc(N=C(N)N)cc1N=C(N)N :: not met
c1ccc(Cn2cc(-c3ccc4[nH]nc(-c5ccccc5)c4c3)nn2)cc1 :: met
CN(C)c1cc(-c2ccncc2)cc2[nH]nc(N)c12 :: met
O=C(NCc1ccccc1)c1c[nH]n2c(=O)cc(-c3ccncc3)nc12 :: met
Cc1cccc(CNc2cc(-c3c[nH]c4ncccc34)cc(Cl)n2)c1C :: met
OCCCCNc1cc(-c2c[nH]c3ncccc23)cc(Cl)n1 :: met
Nc1n[nH]c2ccc(-c3cc(Cc4ccccc4)no3)cc12 :: met
C=CCNc1cc(-c2c[nH]c3ncccc23)cc(Cl)n1 :: met
CN(C)c1ccc(-c2c(-c3ccc4[nH]nc(N)c4c3)nnn2Cc2ccccc2)cc1 :: met
Cc1[nH]nc2ccc(-c3cncc(OCCN(C)S(C)(=O)=O)c3)cc12 :: met
O=C1CN=C(c2cccc(Cl)c2)c2c(sc3c2CCCC3)N1 :: not met
CN(C)CCCOc1cc(-c2ccncc2)cc2[nH]nc(N)c12 :: not met
NC(=O)c1ccc(-c2ccncc2)cc1NCc1cccc(F)c1 :: not met
CCCCNc1cc(-c2c[nH]c3ncccc23)ncn1 :: met
Cc1[nH]nc2ccc(-c3cncc(OCCNS(C)(=O)=O)c3)cc12 :: met
CCCn1c(=O)c2[nH]c(-c3cnn(Cc4cccc(C(F)(F)F)c4)c3)nc2n(CC)c1=O :: not met
CCCCNc1c(-c2ccc3[nH]ncc3c2)nc2ncccn12 :: met
COCC(C)Nc1cc(-c2c[nH]c3ncccc23)cc(Cl)n1 (stereo not drawn) :: met
O=C1Nc2ccccc2Nc2cc(-c3ccncc3F)ccc21 :: met
O=C(Nc1ccccc1)Nc1nccs1 :: not met
c1cnc2[nH]cc(-c3ccnc(NCC4CCCCC4)n3)c2c1 :: met
OCCNc1cc(-c2c[nH]c3ncccc23)cc(Cl)n1 :: met
NC(=O)c1ccc(Nc2ncnc3[nH]cc(-c4ccccc4)c23)cc1 :: met
FC(F)(F)c1ccccc1CNc1nccc(-c2c[nH]c3ncccc23)n1 :: met
O=C1Nc2ccccc2Nc2cc(-c3ccncc3Cl)ccc21 :: met
CN(Cc1ccccc1)c1cc(-c2c[nH]c3ncccc23)cc(Cl)n1 :: met
O=C(O)c1ccccc1Nc1ncnc(Nc2ccc3cn[nH]c3c2)n1 :: met
COCCN(CCOC)c1cc(-c2c[nH]c3ncccc23)cc(Cl)n1 :: not met
c1ccc(Cn2nnc(-c3ccc4[nH]ncc4c3)c2-c2ccccc2)cc1 :: met
CC(C)(C)Oc1cc(-c2ccncc2)cc2[nH]nc(N)c12 :: met
Cc1ccc(Nc2nccc(Nc3ccccc3C(=O)O)n2)cc1F :: met
CNCCOc1cncc(-c2ccc3n[nH]c(C)c3c2)c1 :: met

====

Let's go through some Ki measurements on Cyclin-dependent kinase 2 (Homo sapiens) together.
result-type: Ki

O=C1Nc2ccccc2Nc2cc(-c3ccncc3)ccc21 :: 1000 nM
NC(=O)c1ccc(-c2ccnc(N)n2)cc1N1CCCCC1 :: 1260 nM
CCCCOc1cc(-c2ccncc2)cc2[nH]nc(N)c12 :: 1000 nM
Fc1cccc(-c2c[nH]c3ncccc23)c1 :: 1260 nM
